Would you mind telling me the reported inhibition at 11 µM of each entry?
Molecular target: untagged HECT of NEDD4 wild-type (WT) (E3 ligase) (Homo sapiens, UniProt P46934)
Construct: untagged HECT of NEDD4 wild-type (WT) (E3 ligase); made in house
Sequence (P46934 938-1319 limits assumed): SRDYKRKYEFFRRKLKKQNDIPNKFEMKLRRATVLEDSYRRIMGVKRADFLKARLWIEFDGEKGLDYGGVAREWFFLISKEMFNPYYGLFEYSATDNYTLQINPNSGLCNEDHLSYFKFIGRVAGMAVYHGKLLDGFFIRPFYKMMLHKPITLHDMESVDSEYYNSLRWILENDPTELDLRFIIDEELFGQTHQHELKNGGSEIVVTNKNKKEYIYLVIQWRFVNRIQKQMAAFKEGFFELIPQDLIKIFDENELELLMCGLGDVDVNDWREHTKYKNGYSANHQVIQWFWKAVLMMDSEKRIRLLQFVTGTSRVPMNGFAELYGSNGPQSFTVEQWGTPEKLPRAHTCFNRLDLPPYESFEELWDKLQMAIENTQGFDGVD
Assay: In vitro ubiquitination assay TR-FRET based (self-ubiquitination of NEDD4)
Assay type: biochemical
Details: at 11 μM; pre-incubated for 1 hour; AUC of 120 minutes kinetic; read-out: percentages of inhibition (NEDD4)
Experimental: FIG. 1: TR-FRET kinetic assay performed with compound 12. […] Reactions were initiated with the addition of ATP. […] The activity of the enzyme is continuously and real time detected and it is expressed as % of signal/background during the time. In order to quantitatively measure the self-ubiquitination process of the E3 HECT ligase NEDD4 the inventors employed a TR-FRET based assay. […] Kinetic raw data were analyzed by Area Under the Curve (AUC) method using Prism GraphPad software. […]
Structures can show the parent of a compound that is named as a salt.

Give a short answer stating reported inhibition at 11 µM for CCOC(=O)/C=C/CNCCCCN1c2cc(Cl)ccc2C(=O)N(Cc2ccccc2)c2ccccc21 [Compound 56, maleate] .
> 50%

Give a short answer stating reported inhibition at 11 µM for CCOC(=O)/C=C/CNCCCCN1c2ccc(OCc3ccccc3)cc2CCc2ccc(Cl)cc21 [Compound 101, maleate] .
< 30%

Give a short answer stating reported inhibition at 11 µM for CCOC(=O)/C=C/CNCCCCN1c2cc(Cl)ccc2C(=O)N(CCOCCOCCOC)c2ccccc21 [Compound 87, maleate] .
> 50%

---

Would you mind telling me the reported inhibition at 11 µM of each entry?
Target: His-MPB tagged HECT of HECW2 (E3 ligase) (Homo sapiens, UniProt Q9P2P5)
Construct: using His-MPB tagged HECT of HECW2 (E3 ligase) instead of untagged HECT of NEDD4 wild-type (WT) (E3 ligase); made in house
Sequence (Q9P2P5 1237-1572 limits assumed): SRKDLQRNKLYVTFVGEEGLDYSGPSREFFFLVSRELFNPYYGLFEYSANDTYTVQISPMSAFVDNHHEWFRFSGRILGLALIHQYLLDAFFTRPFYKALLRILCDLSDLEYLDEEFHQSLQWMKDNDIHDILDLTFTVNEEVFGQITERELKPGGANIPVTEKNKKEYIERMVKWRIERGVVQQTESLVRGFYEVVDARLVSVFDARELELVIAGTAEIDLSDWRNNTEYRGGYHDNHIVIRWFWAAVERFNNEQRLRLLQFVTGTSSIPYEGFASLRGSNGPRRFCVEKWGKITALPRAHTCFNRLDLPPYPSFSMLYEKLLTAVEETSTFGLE
Assay: In vitro ubiquitination assay TR-FRET based, HECW2
Format: biochemical
Conditions: read-out: percentage of inhibition (HECW2)
Counter-ions that a name gives are not always drawn.

Give a short answer stating reported inhibition at 11 µM for CONC(=O)/C=C/CNCCCCN1c2ccccc2CCc2ccc(Cl)cc21 [Compound 78, maleate] .
< 5%

Give a short answer stating reported inhibition at 11 µM for C#CCON(C)C(=O)/C=C/CN(C)CCCCN1c2ccccc2CCc2ccc(Cl)cc21 [Compound 77, maleate] .
< 15%

Give a short answer stating reported inhibition at 11 µM for COC(=O)/C=C/CN(C)CCCCN1c2cc(Cl)ccc2C(=O)N(Cc2ccccc2)c2ccccc21 [Compound 58, maleate] .
< 5%

Give a short answer stating reported inhibition at 11 µM for CONC(=O)/C=C/CN(C)CCCCN1c2ccccc2CCc2ccc(Cl)cc21 [Compound 85, maleate] .
< 5%

Give a short answer stating reported inhibition at 11 µM for CCOC(=O)/C=C/CNCCCCN1c2cc(Cl)ccc2C(=O)N(C)c2ccccc21 [Compound 42, maleate] .
< 15%
